The values you see were collected from ChEMBL document CHEMBL3988442.

- Tested on: Trypanosoma cruzi
- experimental_protocol: Trypanosoma cruzi phosphomannomutase and mannose-1-phosphate guanylyltransferase assay
- Format: functional
- Set-up: scale not given: direction of the effect not stated beside the values
- measurement_setup: 10 µM
recorded_endpoint: Percent Effect (%)
The reply should contain only the number, in %.

Solved cases below.
Record lookup: for Trypanosoma cruzi, what Percent Effect belongs to CS(=O)(=O)N[C@@H]1CCO[C@]2(CCN(C(=O)c3cnccn3)C2)C1 ?
1.07

Same for CNC(=O)c1cccc(C2CNCCN2C)c1 (centres undefined)
-2.96

Same for COCC1c2nnn(CC3CC3)c2CCN1C(=O)Cc1cccs1 (centres undefined)
4.59

Same for O=C(CN1CCOC(Cn2cccn2)C1)NCc1cccs1 (centres undefined)
1.58

Same for N#Cc1ccc(C(=O)N2CCC3(CC2)C(=O)Nc2ccccc23)cn1
-0.684

Others:
Record lookup: for Trypanosoma cruzi, what Percent Effect belongs to CCn1cc(C(=O)NC2CCN(S(C)(=O)=O)CC2)c2ccccc21 ?
4.01

Same for CNC(=O)c1ccc(C(=O)N2CCCC(n3cc(C)cn3)C2)cn1 (centres undefined)
9.18

Same for CS(=O)(=O)N1CCC(C(=O)NC(Cc2ccsc2)c2ccccn2)CC1 (centres undefined)
2.17

Same for COc1ccc(OC)c(CNCCc2cc(F)cc3c2OCOC3)c1
4.57

Same for O=C(Cn1nc(-c2ccc(F)cc2)oc1=O)Nc1ccccc1
3.01
